Reference source for all entries: patent US20210220408A1

Test system: mobilized peripheral blood CD34+ cells
Assay Comment: CD34+ expansion assay
Assay type: cell-based
Recorded Conditions: Homo sapiens; read-out: CD34 Frequency EC50
The molecules listed here are annotated with their EC50.

These solved cases illustrate the format of a correct answer.
{"Entry Smiles": "Cc1cc(C(=O)NNC(=O)c2cnn(-c3ccccc3C)c2C(F)(F)F)c(C)o1", "EC50": "≥ 5 µM"}
{"Entry Smiles": "COc1cccc(NC(=O)c2cc3c(=O)n4ccccc4nc3n2C)c1", "EC50": "< 0.5 µM"}

Here's the next entry for you.
IN: Recorded EC50 of COc1ccc(-c2ccc3c(N)c(C(=O)NC4CC4)sc3n2)cc1 , please.
OUT: ≥ 5 µM
